experimentNotes: yeast display, Sf9 membrane polyspecificity reagent, FACS + sequencing; frameworks hold sequencing errors
measurementKind: polyreactivity (PSR sort gate)

sequenceString	measurementKind	reportedResult
QVQLVESGGGLVQAGGSLRLSCAASGSIFGIYAMGWYRQAPGKERELVAAIDSSGTSTYYADSVKGRFTISRDNAKNTVYLQMNSLKPEDTAVYYCAAYHRISKNNYLGQGTQVTVSS	polyreactivity (PSR sort gate)	low polyreactivity
QVQLVESGGGLVQAGGSLRLSCAASGRIFADYAMGWYRQAPGKERELVATITSGDRTYYADSVKGRFTTSRDNAKNTVYLQMNSLKPEDTAVYYCAAYKPWYVGLYPWYDYWGQGTQVTVSS	polyreactivity (PSR sort gate)	low polyreactivity

====

experimentNotes: yeast display, Sf9 membrane polyspecificity reagent, FACS + sequencing; frameworks hold sequencing errors
measurementKind: polyreactivity (PSR sort gate)

sequenceString	reportedResult
QFQLVESGGGLVQAGGSLRLSCAASGIIFGRYTKGWYRDAPGKETELVAAITSSGITYYADSVKGRFTISRDNAKNTVYLQMNSLKPEDTAVYYCAADVGYWGRSRGYPSDDYDYWGQGTQVTVSS	low polyreactivity
QVQLVESGGGLVQAGCSLRLSCAASGSTFFFNAMGWYRQAPGKERELVAAITGRCGSTYYADSVKGRFTISRDNAKNTVYLQMNSLIPEDTAVYYCAAEGVPYWSSRFWRYDYWGQGTQVTVSS	low polyreactivity
QLQLVESGGGLVQAGGSLRLSCAASGRTFIHYAMGWYRQAPGKERELVAAISDDASSTYYADSVKGRFTISRDNAKNTVYLQMNSLKPEDTAVYYCNVELAKVGGVEYDYWGQGTLVTVSS	low polyreactivity

====

experimentNotes: yeast display, Sf9 membrane polyspecificity reagent, FACS + sequencing; frameworks hold sequencing errors

sequenceString	polyreactivity (PSR sort gate)
QVQLVESGVGLVQAGGSLRLSSAASGFTFIYYAMGWYRQAPGKERELVAAITSGGNTYYADSVKGRFTISRDNAKNTDYLQMNSLTPEDPAVYYCNKVPHREWVGGYDYWGQGTQVTVSS	low polyreactivity
QVQLVESGGGLVQAGGSLRLSCAASGLTLYGYTMGWYRQAPGKERELVATITTGGDSTYYADSVKGRFTISRDNAKNTVYLQMNSLKPEDTAVYYCAAYSYGWDYSYDYWGQGTQVTVSS	low polyreactivity

====

experimentNotes: yeast display, Sf9 membrane polyspecificity reagent, FACS + sequencing; frameworks hold sequencing errors
measurementKind: polyreactivity (PSR sort gate)

Consider the reported polyreactivity (PSR sort gate) for these sequences:
sequenceString	polyreactivity (PSR sort gate)
QVQLVESGGGLVQAGGSLRLSCAASGRIFPRNAMGWYRQAPGKERELVAAISQSGTSTYYADSVKGRFTISRDNAKNTVYLQMNSLKPEDTAVYYCAAVSSSGYYWGQGTQVTVSS	low polyreactivity
QVQLVESGGGLVQAGGSLRLSCAASGRTFHRYVMGWYRQAPGKERELVAAISKSGGRTYYADSVKGRFTISRDNAKNTVYLQMNSLKPEDTAVYYYNARTAAGALYDYWGQGTQVTVSS	high polyreactivity
QVQLVESGGGLVQAGGSLRLSCAASGSIFYRNAMGWYRQAPGKERELGAAISWSAARTYYADSVKGRFTISRDNAKNTVYLQMNSLKPEDTAVYYCAAYQTSRYKYEYWGQGTQVTVSS	high polyreactivity
QVQLVESGGGLVQAGGSLRLSCAASGITFKYAMGWYRQAPGKERELVAAISGGGRTNYADSVKGRFTISRDNAKNTVYLQMNSLKPEDTAVYYCAAQGSRWWGFDYWGQGTQVTVSS	high polyreactivity
QVQLVESGGGLVQAGGSLRLSCAASGSIFRRYAMGWYRQAPGKERELVAGITRGGSTYYADSVKGRFTISRDNAKNTVYLQMNSLKPEDTAVYYCNRAARYGEYDYWGQGTQVTVSS	high polyreactivity

State the recorded polyreactivity (PSR sort gate) for this entry: QVQLVESGGGLVQAGGSLRLSCAASGFTFRTYAMGWYRQAPGKERELVSAITGSGGRTYYADSVKGRFTISRDYAKNTVYLQMNSLKPEDTAVYYCAADYVVPWAFWTFRFDYWGQGTQVTVSS
low polyreactivity

Continue with QVQIVESGGGLVQAGGSLRLSCAASGFIFDNNAMGWSRQAPWKESELFATITSGGRTNYADSVKGRFTISRDNAKNTVYLRMNCLKPEDTAVYYCAAFYYLCSRRKTRDYWGQGTQVTVSS
low polyreactivity

Continue with QVQLVESGGGLVQAGGSLRLSCAASGLIFVSYAMGWYRPAPGKERELVASITDSDSSTYYADSVKGRFTISRDNAKNTVYLQMNSLKPEDTAVYYCATGGRTEIWYPTLDYWGQGTQVTVSS
low polyreactivity

Continue with QVQLVESGGGFVQAGCSLRLSCGASGLTFKTYAMGWYSQARGKERELVAAMSGTGGGTYYADSVKGRFTISRDNAKKTVYLQMNSQKPEDTEVYYCAALHQAYRGFDYWGQGTQVTVSS
high polyreactivity

Continue with QVQLVESGGGIVQAGGSLRLSCAASGRIFAFNAMGWYRPAPGKERELVADITSSGVNTYYADSVKGRFTISRDNAINTVYLQMNSLKPEYTAVYYCAARSYLRWWVGMEYWGQGTQVTVSS
low polyreactivity

Continue with QVQLVESGGGLVQAGGSLRLSCAASGRIFVNNAMGWYRPAPGKERELVAAISKRGGSTYYADSLKGRFTISRDNAMNTVYLHMNSLKPEDTAVYYCAASGYRYPIDGDYWGQGTEVTVSS
high polyreactivity

====

experimentNotes: yeast display, Sf9 membrane polyspecificity reagent, FACS + sequencing; frameworks hold sequencing errors
measurementKind: polyreactivity (PSR sort gate)

sequenceString	measurementKind	reportedResult
QVQLVESGGGLVQAGGSLRLSCAASGSIFSNNAMGWYRQAPGKEREFVAAIRGRGTRAYYADSVKGRFTISRDNAKNTVYLQMNSLKPEDTAVYYCAASARTYVQSGYWGQGTQVTVSS	polyreactivity (PSR sort gate)	high polyreactivity
QVQLVESGGCLVQAGGRLRLSCAPSGFTFRKYAMGWYRQAPGKERQLVAAITANGGRTYNADSVKGRFTISRDNAKYTDYLKMNSLKPEDTSVYYCYARPSRGFRPRSAYGYWGQGTQVTVSS	polyreactivity (PSR sort gate)	high polyreactivity

====

experimentNotes: yeast display, Sf9 membrane polyspecificity reagent, FACS + sequencing; frameworks hold sequencing errors
measurementKind: polyreactivity (PSR sort gate)

sequenceString	polyreactivity (PSR sort gate)
QLQLQESGGGLVQAGGSLRLSCAWSGTIAFTRDLGSYRQAPGKDREFVASIDRGASTYYADSVKGRFTISRDNAKNTVYLQMNSLKPEDTAVYYRAVIAPFYSSFAYWGQGTQVTVSS	high polyreactivity
QVQLVESGGGLVQAGGSLRLNCAASGITIRRYAMGCYRQAPGNERELVAAITTGGGGTYYADSVKGRFTISRDNAMNTVYLQMNSLKPEDTAVYYCAATYWRTYPSYYWGQGTQVTVSS	high polyreactivity
QVQLVESGGGLVQAGGSLRLTCAASGRIFGLYAMGWSRQAPGKERELVAAISVISTGTYYADSVKGRFTISRDNAKNTVYLQMNSLKPEDTAVYYCNADSGQYTPPESDYWGQGTQVTVSS	low polyreactivity
QVQLVESVGGLVQAGGSLRLSCADSGSTFYFNAMGWYRQAPGKEREFVAAIEWSGGSTYYADSVKGRFTISRDNAKNTVYLQMNSLKPEDTAVYYCAAPYHYYGNSVGYADYDYWGQGTQVTVSS	low polyreactivity

Here is another sequence to look at.
State the recorded polyreactivity (PSR sort gate) for this entry: QVQLVESGGGLVQAGGSLRLSCAASGSIFQYYAMGWYRQAPGKERELVAAISSAGSTKYADSVKGRFTISRDNAKNTVYLQMNSLKPEDTAVYYCAARDPSRHARRAYDYWGQGTQVTVSS
low polyreactivity

====

experimentNotes: yeast display, Sf9 membrane polyspecificity reagent, FACS + sequencing; frameworks hold sequencing errors
measurementKind: polyreactivity (PSR sort gate)

sequenceString	polyreactivity (PSR sort gate)
QVQLEESGGGLVQAGGSHRLSCAASGIIFSKYAMGWYRPAPGKEREFGAAISQRGGRTYYADSVKGRFTISRDNAKNTVYLQMNSLNTEDTAVYYCAATGTGGVYPLDYGGQGTQVTVSS	high polyreactivity
QVQLVESGGGLVQAGGILSLSCAASGIIFYTYAMGWYRQAPGKERELVATISWDVDSTNYADSVKGRFTISRDNAKNTVYLQMNSLKPEDTAVYYCAVDYTFDSYWYWVDYYEYGYWGQGTQVTVTS	high polyreactivity
QVQLVESGAGLVQAGGSLRLSCAASGSTFYMYAMGWDRTATGKERELLADISLSGVSTYYADSVKGRFTFSRDNAKHTVYLQMNSLKPEDTAVYYCAADVFYPGPWSYEYWGQGTHVTVSS	low polyreactivity
QVQLVESGGGLVQAGGSLRLSCAASGRIFHRYDMGWDRQAPGKEREFVAAISSRGGSTYYADSVKGRVTISRDYAKNTVYLQMNSLKPEDTAVYYCAAQNGYRSGEFYYWGQGTQVTVSP	high polyreactivity
QVQLVESGGGLVQAGGSLRLSCAASGFTISRYTMGWYRQAPGKERELVASITRRAGSTYYADSVKGRYTISRDNAQTTVYLQMYSLKPEDTAVYYCAAYGWTFSKVDLEMDYWGQGTQVTVSS	high polyreactivity
QVQLVESGGGLVQAGGSLRLSCAASGRTFRYYAMGWYRQAPGKERELVAAISRSGGSTYYAVSVKGRFTISRDNAKNTVYLQMNSLTPEVTAVYYCAARYYVPWFGPSKYTPYDYWGQGIQVTVSS	high polyreactivity
QVQLVESGGGLVQAGGSLRLSCAASGSTFISNDMGWYRQAPGKEREFVAAITASGGSTYYADSVKGRFTISRDYAKNTVYLQMNSLKPEDTAVYYCARVYTFLDVYFRYGYWGQGTQVTVSS	low polyreactivity
QVQLVESGGGLVQAGGSLRLSCAASGNTFYSNAMGWYRQAPGKERDLVAAISASGTTTYYADSVKGRFTISRDNAKNTVYLQMNSLKPEDTAVYYCAAVAPTRATRREDSWGQGTQVTVSS	high polyreactivity

State the recorded polyreactivity (PSR sort gate) for this entry: QVQLVESGGGLVQAGGSHRLSCAASGRTFWYTMGWYRQAPGKERELVAAITWSGGSTYYADSVKGRFTISRDNAMNTVYLQMNSLNPEDTAVYYWNAADYQLWFGYDYWGQGTQVTVSS
low polyreactivity

Continue with QVQLVESGGGLVQAGGSLRLSCAASGFNFDGNAMGWYRQAPGKERELVAAISSSSGRTRYADSVTGRFSISRDNAKNTVYLQMNSLKPEDTAVYYCAARRQSTRPGFYYWGQGTQVTVSS
high polyreactivity

Continue with QVQLVVSGGGLVQAGGSLRLSCAASGRTFRSYAMGWYRQAPGKERELVAAISYGGGSTYYADSVKGRFTISRDNAKNTVYLQMNSLKPEDTAVYYCAAAVYKRGGYDYWGQGTQVTVSS
high polyreactivity

These entries and their values trace back to the nanobody polyreactivity screen of Harvey et al. (2022).
